- COND: 311.16 K; 101.33 kPa; Liquid; Vibrating tube method
MEASURED_METRIC: mass density (kg/m3)

MOLECULE	MEASURED_METRIC	DATA_VALUE
CC(=O)[O-].C[NH2+]CCO [N-methyl-2-hydroxyethylammonium acetate]	mass density	1093.01
CCCCC(=O)[O-].C[NH2+]CCO [2-hydroxy-N-methylethanaminium pentanoate]	mass density	1007.48
CC(C)C(=O)[O-].C[NH2+]CCO [2-hydroxy-N-methylethanaminium isobutyrate]	mass density	1034.97
CCC(=O)[O-].C[NH2+]CCO [2-hydroxy-N-methylethanaminium propionate]	mass density	1062.82
C[NH2+]CCO.O=C[O-] [2-hydroxy-N-methylethanaminium formate]	mass density	1120.99
CCCC(=O)[O-].C[NH2+]CCO [N-methyl-2-hydroxyethylammonium butanoate]	mass density	1030.51
